System: murine neural precursor cells (neurosphere cultures)
PROCEDURE_TEXT: HTS of LOPAC library against secondary neurosphere cultures, MTT proliferation assay at 3 μM, day 7 (z score, P value)
Type: cell-based, mouse
CONDITION_CONTEXT: LOPAC primary screen, neurosphere MTT proliferation, 3 μM, day 7
Counter-ions that a name gives are not always drawn.
Mark Fulfilled only when Z score stays strictly below -1. Values equal to the cut-off are Not fulfilled.

| COMPOUND | LABEL_CLASS |
| --- | --- |
| Cl.Clc1ccc(N2CCN(Cc3c[nH]c4ncccc34)CC2)cc1 [L-745,870 hydrochloride] | Fulfilled |
| CC[C@@]1(O)C(=O)OCc2c1cc1n(c2=O)Cc2cc3ccccc3nc2-1 [(S)-(+)-Camptothecin] | Fulfilled |
| CCCCCCCCCCCCCCCCCCNC(=O)OCC(COP(=O)([O-])OCC[n+]1ccsc1)OC (stereo not shown) | Not fulfilled |
| COc1ccc(OC)c(C(O)C(C)N)c1 (stereo not shown) [Methoxamine hydrochloride] | Fulfilled |

**Q:** Could you please tell me whether Z score recorded for Nc1ccncc1 is less than -1?
**A:** Fulfilled
